compounds and their reported Ymax (%) maximal activity, transport of cargo
# protocolSummary: HPTS/DPX transport assay in zwitterionic EYPC vesicles
# Format: in vitro ADME
# measurementConditions: cargo concentration varied, B12Br12^2− (40 μM) as common carrier; EYPC⊃HPTS/DPX vesicles, 13 µM lipid, 10 mM Tris, 107 mM NaCl, pH 7.4; HPTS fluorescence; Hill analysis; 10% error (SD) unless stated; n.t. = no detectable transport
// return numeric value only (unit: %, not printed)

See these solved cases before continuing.
N[C@@H](Cc1c[nH]c2ccccc12)C(=O)O
72
CC1(C)S[C@@H]2[C@H](NC(=O)[C@H](N)c3ccccc3)C(=O)N2[C@H]1C(=O)O [Ampicillin, ampicillin, reference compound]
74
CC(=O)O[C@H]1C[C@@H]2CC[C@@H]3[C@H](CC[C@@]4(C)[C@H]3C[C@H]([N+]3(C)CCCCC3)[C@@H]4OC(C)=O)[C@@]2(C)C[C@@H]1N1CCCCC1 [Vecuronium, reference compound]
64
CNC(=C[N+](=O)[O-])NCCSCc1ccc(CN(C)C)o1 [Ranitidine, reference compound]
70
Cc1ncc(C[n+]2csc(CCO)c2C)c(N)n1
73

Exercise: Ymax (%) maximal activity, transport of cargo for "CC(=O)OCC[N+](C)(C)C" ?
Key: 75

Exercise: Ymax (%) maximal activity, transport of cargo for "N[C@@H](Cc1ccccc1)C(=O)O" ?
Key: 10
